SYSTEM_NAME: PD-L1 (human)
Sequence (chain, as listed by the source): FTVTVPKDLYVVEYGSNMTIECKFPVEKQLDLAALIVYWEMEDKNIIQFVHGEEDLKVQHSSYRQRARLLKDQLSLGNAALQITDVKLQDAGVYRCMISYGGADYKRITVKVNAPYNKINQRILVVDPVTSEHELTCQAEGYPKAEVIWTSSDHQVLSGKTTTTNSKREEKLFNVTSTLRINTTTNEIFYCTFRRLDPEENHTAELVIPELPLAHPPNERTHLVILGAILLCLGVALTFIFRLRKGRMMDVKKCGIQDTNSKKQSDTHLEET
METHOD_SUMMARY: flow cytometry, cells expressing PD-L1
Assign MFI to each entry below.
Use MFI as the unit, but write only the number.

Data request: Any idea what its MFI is? The binder is variant CD80 I67F/L70R/E88G/A91G/I118V/T120S/T130A (Fc fusion) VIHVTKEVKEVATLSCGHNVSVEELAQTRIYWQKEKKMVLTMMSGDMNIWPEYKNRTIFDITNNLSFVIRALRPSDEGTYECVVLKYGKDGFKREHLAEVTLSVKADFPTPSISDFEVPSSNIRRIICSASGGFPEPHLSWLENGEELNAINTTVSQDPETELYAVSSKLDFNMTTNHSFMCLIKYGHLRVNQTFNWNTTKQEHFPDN
Data returned: 6

Data request: Try the binder variant CD80 K37E/F59S/L70Q/A91G/T120S/T130A (Fc fusion) VIHVTKEVKEVATLSCGHNVSVEELAQTRIYWQKEKEMVLTMMSGDMNIWPEYKNRTISDITNNLSIVIQALRPSDEGTYECVVLKYEKDGFKREHLAEVTLSVKADFPTPSISDFEIPSSNIRRIICSASGGFPEPHLSWLENGEELNAINTTVSQDPETELYAVSSKLDFNMTTNHSFMCLIKYGHLRVNQTFNWNTTKQEHFPDN
Data returned: 6

Data request: Try the binder variant CD80 V4M/L70Q/A91G/I118V/T120S/T130A/K169E (Fc fusion) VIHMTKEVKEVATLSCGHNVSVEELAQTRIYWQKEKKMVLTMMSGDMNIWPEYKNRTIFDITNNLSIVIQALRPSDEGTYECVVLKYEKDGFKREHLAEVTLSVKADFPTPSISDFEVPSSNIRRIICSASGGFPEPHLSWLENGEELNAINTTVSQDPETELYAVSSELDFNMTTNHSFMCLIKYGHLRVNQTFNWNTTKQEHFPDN
Data returned: 6

Data request: Try the binder variant CD80 V22A/L70Q/S121P (Fc fusion) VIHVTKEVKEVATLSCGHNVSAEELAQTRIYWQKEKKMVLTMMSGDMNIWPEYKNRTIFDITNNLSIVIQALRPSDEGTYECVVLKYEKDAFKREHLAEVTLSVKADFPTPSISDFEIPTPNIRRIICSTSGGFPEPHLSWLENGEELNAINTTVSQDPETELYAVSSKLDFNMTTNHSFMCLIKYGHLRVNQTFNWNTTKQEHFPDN
Data returned: 5

Data request: Try the binder variant CD80 A12V/S15F/Y31H/M38L/T41G/M43L/D90N/T130A/P137L/N149D/N152T (Fc fusion) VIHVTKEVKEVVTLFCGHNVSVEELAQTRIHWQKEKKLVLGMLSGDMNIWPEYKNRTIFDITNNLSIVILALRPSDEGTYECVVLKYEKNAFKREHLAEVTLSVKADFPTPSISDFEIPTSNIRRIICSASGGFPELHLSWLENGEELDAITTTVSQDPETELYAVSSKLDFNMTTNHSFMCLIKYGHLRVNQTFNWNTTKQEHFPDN
Data returned: 5

Data request: Try the binder variant CD80 S44P/L70Q/A91G/T130A (Fc fusion) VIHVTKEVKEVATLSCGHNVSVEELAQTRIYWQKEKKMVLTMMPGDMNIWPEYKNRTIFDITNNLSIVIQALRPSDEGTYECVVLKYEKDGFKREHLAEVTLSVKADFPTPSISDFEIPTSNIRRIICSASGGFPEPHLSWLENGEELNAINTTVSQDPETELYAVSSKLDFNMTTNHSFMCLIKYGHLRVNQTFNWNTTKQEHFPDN
Data returned: 5
